System: HOP-92 NSCLC
Experiment: NCI tumour cell line growth inhibition, 48 h
Below is a list of entries, each paired with its recorded TGI value.
recordedMetric: TGI (µM)

molecule: CC(=O)C1C(=O)C(=O)N(CCN2C(=O)C(=O)C(C(C)=O)C2=O)C1=O (stereo not given)
resultOperator: >
assayValue: 100
//
molecule: COC(=O)c1ccccc1C1CN=NC12Cc1ccc3c(c1C2=O)CCC3 (stereo not given)
resultOperator: >
assayValue: 100
//
molecule: Cc1c(C(N)=O)sc2nc(C)n(/N=c3\scc(-c4ccccc4)n3Cc3ccccc3)c(=O)c12
resultOperator: =
assayValue: 5.33
//
molecule: Cc1ccc(-c2nc3sc(C)cn3c2/C=C2\C(=O)Nc3ccc(Cl)cc32)cc1
resultOperator: =
assayValue: 25.1
//
molecule: Clc1ccc(-c2nc(NCc3ccco3)c3ccccc3n2)c(Cl)c1
resultOperator: =
assayValue: 74.7
